molecular target: HRas^G12V (Homo sapiens (Human), UniProt P01112, G12V); test: 19F DLB (ligand-observed 19F NMR) score; assay type: binding; parameters: scale not given here
Sequence (P01112 1-166 G12V): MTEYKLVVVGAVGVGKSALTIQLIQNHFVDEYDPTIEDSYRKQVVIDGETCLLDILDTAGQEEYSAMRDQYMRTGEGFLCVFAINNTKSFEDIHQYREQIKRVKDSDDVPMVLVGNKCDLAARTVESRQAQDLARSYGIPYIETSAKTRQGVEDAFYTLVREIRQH
readout.kind: 19F DLB Score

Recorded results for 4 compounds are shown here.
[[record]]
compound = "O=C(O)CC(c1cccc(O)c1)c1c[nH]c2cc(F)ccc12 (stereo not drawn)"
assayed_system = "HRas^G12V (Homo sapiens (Human), UniProt P01112, G12V)"
readout_kind = "19F DLB Score"
result = "Non conclusive"

[[record]]
compound = "CS(=O)(=O)NCCC(=O)NCCc1c[nH]c2cc(F)ccc12"
assayed_system = "HRas^G12V (Homo sapiens (Human), UniProt P01112, G12V)"
readout_kind = "19F DLB Score"
result = 1.22

[[record]]
compound = "CC1CN(C(=O)Cc2c[nH]c3cc(F)cnc23)C1"
assayed_system = "HRas^G12V (Homo sapiens (Human), UniProt P01112, G12V)"
readout_kind = "19F DLB Score"
result = 1.14

[[record]]
compound = "CN1CCC[C@H]1C(=O)NCCc1c[nH]c2cc(F)ccc12"
assayed_system = "HRas^G12V (Homo sapiens (Human), UniProt P01112, G12V)"
readout_kind = "19F DLB Score"
result = 1.22


Incoming: Return reported 19F DLB Score. Input compound: CN1CCN(C(=O)Cc2c[nH]c3cc(F)ccc23)C[C@@H]1C(=O)O [Compound 10166]
Outgoing: 1.55

Incoming: Return reported 19F DLB Score. Input compound: O=C(O)C[C@H](c1ccccc1F)c1c[nH]c2cc(F)ccc12 (single isomer, unassigned)
Outgoing: Non conclusive

###

target: HRas^G12V (Homo sapiens (Human), UniProt P01112, G12V); experiment: 19F T2-CPMG NMR score; format: binding
Exercise: for every item that follows, state its recorded 19F T2-CPMG Score.

Incoming: Return reported 19F T2-CPMG Score. Input molecule: O=C(Cc1c[nH]c2cc(F)ccc12)N1CCOC(c2ccccc2)C1 (stereo not drawn) [Compound 10136]
Outgoing: 6.73

Incoming: Return reported 19F T2-CPMG Score. Input molecule: CCOC(=O)[C@H]1CCCCN1C(=O)Cc1c[nH]c2cc(F)ccc12 [Compound 10128]
Outgoing: 13.67

Incoming: Return reported 19F T2-CPMG Score. Input molecule: O=C(c1ccc(F)cc1F)N1CCC(c2c[nH]c3cc(F)ccc23)CC1 [Compound 11026]
Outgoing: −1.86

###

target: HRas^G12V (Homo sapiens (Human), UniProt P01112, G12V); test: 19F T2-CPMG NMR score; assay type: binding
readout.kind: 19F T2-CPMG Score
Give the figure only, with no unit attached.

Incoming: Return reported 19F T2-CPMG Score. Input compound: "CC1CN(C(=O)Cc2cc3cc[nH]c3cc2F)C1"
Outgoing: 0.19

Incoming: Return reported 19F T2-CPMG Score. Input compound: Fc1ccc2c(C3CCNC3)c[nH]c2c1 (centres unmarked)
Outgoing: 6.67

Incoming: Return reported 19F T2-CPMG Score. Input compound: "CCOC(=O)[C@@H](C)NC(=O)Cc1c[nH]c2cc(F)ccc12"
Outgoing: 4.07

Incoming: Return reported 19F T2-CPMG Score. Input compound: "O=C(O)C[C@H]1CN(C(=O)Cc2c[nH]c3cc(F)ccc23)CCO1"
Outgoing: 2.74

Incoming: Return reported 19F T2-CPMG Score. Input compound: CN(C)Cc1c[nH]c2ccc(F)cc12 [FS-1254, reference compound]
Outgoing: 0.74

Incoming: Return reported 19F T2-CPMG Score. Input compound: "CN(C)C[C@@H]1CN(C(=O)Cc2c[nH]c3cc(F)ccc23)CCO1"
Outgoing: 19.26

Incoming: Return reported 19F T2-CPMG Score. Input compound: "CC1CN(C(=O)Cc2c[nH]c3cc(F)cnc23)C1"
Outgoing: 2.32

Incoming: Return reported 19F T2-CPMG Score. Input compound: "CCOC(=O)[C@@H](NC(=O)Cc1c[nH]c2cc(F)ccc12)C(C)C"
Outgoing: 2.25

Incoming: Return reported 19F T2-CPMG Score. Input compound: "COC(=O)Cc1c[nH]c2cc(F)ccc12"
Outgoing: 6.77

Incoming: Return reported 19F T2-CPMG Score. Input compound: CC(CCO)NC(=O)Cc1c[nH]c2cc(F)ccc12 (centres unmarked)
Outgoing: 3.17

###

molecular target: HRas^G12V (Homo sapiens (Human), UniProt P01112, G12V); assay: 19F T2-CPMG NMR score; type: binding
Assign labels as follows, please: Satisfied for 19F T2-CPMG Score below 8; Not satisfied for 19F T2-CPMG Score equal to or exceeding 8.

Incoming: Below 8 on 19F T2-CPMG Score? Entry "CS(=O)(=O)NCCC(=O)NCCc1c[nH]c2cc(F)ccc12"
Outgoing: Satisfied

Incoming: Below 8 on 19F T2-CPMG Score? Entry "Fc1ccc2c(CCNCCc3c[nH]c4cc(F)ccc34)c[nH]c2c1"
Outgoing: Satisfied

Incoming: Below 8 on 19F T2-CPMG Score? Entry "CC(=O)N[C@H]1CCCN(C(=O)Cc2c[nH]c3cc(F)ccc23)C1"
Outgoing: Satisfied

Incoming: Below 8 on 19F T2-CPMG Score? Entry O=C(c1ccccc1)N1CCC(c2c[nH]c3cc(F)ccc23)C1 (stereo not drawn)
Outgoing: Not satisfied

Incoming: Below 8 on 19F T2-CPMG Score? Entry O=C(C1CCNC1)N1CCC(c2c[nH]c3cc(F)ccc23)C1 (stereo not drawn)
Outgoing: Not satisfied

Incoming: Below 8 on 19F T2-CPMG Score? Entry "O=C(O)[C@H]1CN(C(=O)Cc2c[nH]c3cc(F)ccc23)CCO1"
Outgoing: Satisfied

Incoming: Below 8 on 19F T2-CPMG Score? Entry CN(C)S(=O)(=O)NCCc1c[nH]c2cc(F)ccc12 [Compound 10004, reference compound]
Outgoing: Not satisfied

Incoming: Below 8 on 19F T2-CPMG Score? Entry "CN(C)CCOC1CN(C(=O)Cc2c[nH]c3cc(F)ccc23)C1"
Outgoing: Not satisfied

Incoming: Below 8 on 19F T2-CPMG Score? Entry "CC(=O)N1CC[C@H](NC(=O)Cc2c[nH]c3cc(F)ccc23)C1"
Outgoing: Satisfied

Incoming: Below 8 on 19F T2-CPMG Score? Entry O=C(c1cccc(F)c1)N1CCC(c2c[nH]c3cc(F)ccc23)C1 (stereo not drawn)
Outgoing: Satisfied

Incoming: Below 8 on 19F T2-CPMG Score? Entry "O=C(C1CC1)C1CN(C(=O)Cc2c[nH]c3cc(F)ccc23)C1"
Outgoing: Not satisfied

Incoming: Below 8 on 19F T2-CPMG Score? Entry "CC(=O)Nc1cccc(C(=O)N2CCC(c3c[nH]c4cc(F)ccc34)CC2)c1"
Outgoing: Not satisfied

Incoming: Below 8 on 19F T2-CPMG Score? Entry O=C(c1ccc(F)cc1F)N1CCC(c2c[nH]c3cc(F)ccc23)C1 (stereo not drawn)
Outgoing: Not satisfied

Incoming: Below 8 on 19F T2-CPMG Score? Entry "COCCNC(=O)Cc1c[nH]c2cc(F)ccc12"
Outgoing: Satisfied

Incoming: Below 8 on 19F T2-CPMG Score? Entry CN1CCC(NC(=O)Cc2c[nH]c3cc(F)ccc23)C(C(=O)O)C1 (stereo not drawn) [Compound 10119]
Outgoing: Satisfied

Incoming: Below 8 on 19F T2-CPMG Score? Entry "CN(C)CC(=O)Nc1ccc(NC(=O)Cc2c[nH]c3cc(F)ccc23)cc1"
Outgoing: Not satisfied

Incoming: Below 8 on 19F T2-CPMG Score? Entry "O=S(=O)(NCCc1c[nH]c2cc(F)ccc12)c1ccc(F)cc1"
Outgoing: Satisfied

Incoming: Below 8 on 19F T2-CPMG Score? Entry "CC(C)(C(=O)N1CCC1)c1c[nH]c2cc(F)ccc12"
Outgoing: Satisfied

Incoming: Below 8 on 19F T2-CPMG Score? Entry "CCOC(=O)C[C@@H]1CN(C(=O)Cc2c[nH]c3cc(F)ccc23)CCO1"
Outgoing: Satisfied

Incoming: Below 8 on 19F T2-CPMG Score? Entry "O=C(Cc1c[nH]c2cc(F)ccc12)N[C@@H]1CCOC1"
Outgoing: Satisfied

###

Exercise: for every item that follows, state its recorded Kd.
Molecular target: HRas^G12V (Homo sapiens (Human), UniProt P01112, G12V)
Test: Dissociation constant by NMR (1H/15N Fast-HSQC, 1H 1D protein-observed)
Type: binding
Settings: HRas^G12V; read-out: NMR Kd
Protocol: All NMR experiments were collected using 3 mm NMR tubes on a 600 MHz Bruker Avance III spectrometer equipped with a QCI helium cryoprobe and a SampleJet sample changer. […] ^1H/^15N Fast-HSQC experiments (Mori et al., Journal of Magnetic Resonance, Series B, Volume 108, Issue 1, July 1995, Pages 94-98) were recorded at a protein concentration of 50-100 μM. […] ^1H 1D protein-observed experiments were recorded with 15-50 μM protein. […]

Incoming: Return reported Kd. Input compound: CN(C)Cc1c[nH]c2cc(F)ccc12 [FS-1255, reference compound]
Outgoing: 9.83 to 12 mM

Incoming: Return reported Kd. Input compound: "CN(C)C[C@@H]1CN(C(=O)Cc2c[nH]c3cc(F)ccc23)CCO1"
Outgoing: 2.95 to 3.43 mM

Incoming: Return reported Kd. Input compound: "O=C(Cc1c[nH]c2ncc(F)cc12)N1CCC1"
Outgoing: > 10 mM

Incoming: Return reported Kd. Input compound: "CC(C)N1CCC(NC(=O)Cc2c[nH]c3cc(F)ccc23)CC1"
Outgoing: 3.03 to 3.7 mM

Incoming: Return reported Kd. Input compound: CN(C)S(=O)(=O)NCCc1c[nH]c2cc(F)ccc12 [Compound 10004, reference compound]
Outgoing: 6.16 to 6.4 mM

Incoming: Return reported Kd. Input compound: "CC(=O)N[C@H]1CCN(C(=O)Cc2c[nH]c3cc(F)ccc23)C1"
Outgoing: 5.2 to 9 mM

Incoming: Return reported Kd. Input compound: "CC(=O)N1CCN(C(=O)Cc2c[nH]c3cc(F)ccc23)CC1"
Outgoing: 4.03 to 9.5 mM
